Values from paper PMC5231396

Molecular target: M1 muscarinic acetylcholine receptor (Mus musculus, UniProt P12657)
Sequence (P12657 1-460): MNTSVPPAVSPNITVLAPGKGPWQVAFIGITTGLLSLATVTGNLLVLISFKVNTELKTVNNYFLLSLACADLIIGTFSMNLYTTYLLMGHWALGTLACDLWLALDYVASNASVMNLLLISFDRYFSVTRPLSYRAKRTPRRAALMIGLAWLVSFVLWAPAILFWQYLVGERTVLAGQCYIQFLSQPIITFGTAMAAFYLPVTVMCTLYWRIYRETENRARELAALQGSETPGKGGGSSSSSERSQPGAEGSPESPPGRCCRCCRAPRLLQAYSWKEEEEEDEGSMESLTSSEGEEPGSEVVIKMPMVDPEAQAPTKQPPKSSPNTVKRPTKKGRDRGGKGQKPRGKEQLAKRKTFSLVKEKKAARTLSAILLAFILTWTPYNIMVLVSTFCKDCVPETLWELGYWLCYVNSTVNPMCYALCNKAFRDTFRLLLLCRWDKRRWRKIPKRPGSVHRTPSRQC
Test: previously published M1 PAM compared side-by-side with VU6004256
READOUT LABEL: EC50 (µM)
Report as a plain number; the unit µM is understood.

Entry Cn1cc(-c2ccc(CN3Cc4ncccc4C3=O)c(F)c2)cn1 has what EC50?
3.22
